Tested on: ASPC-1 tumor-bearing mice
method description: Biodistribution of radionuclide labeled complexes in ASPC-1 tumor-bearing mice
Type: in vivo, BALB/c nude mice
recorded conditions: Tumor, 1 h
readout label: % ID/g (1 h) Tumor (% ID/g)

compound	endpoint unit	readout value
COc1cccc(OC)c1-c1cc(C(=O)NC2(C(=O)O)C3CC4CC(C3)CC2C4)nn1-c1ccc(OCCCN(C)CCCN(C)C(=O)CN2CCN(CC(=O)[O-])CCN(CC(=O)[O-])CCN(CC(=O)[O-])CC2)cc1C(C)C.[177Lu+3] (stereo not shown) [^177Lu-I-7]	% ID/g	15.27
COc1cccc(OC)c1-c1cc(C(=O)NC2(C(=O)O)C3CC4CC(C3)CC2C4)nn1-c1ccc(C(=O)N(CCCNC(=O)CN2CCN(CC(=O)[O-])CCN(CC(=O)[O-])CCN(CC(=O)[O-])CC2)CCCN(C)C)cc1C(C)C.[177Lu+3] (stereo not shown) [^177Lu-C-5, reference compound]	% ID/g	14.96
COc1cccc(OC)c1-c1cc(C(=O)NC2(C(=O)O)C3CC4CC(C3)CC2C4)nn1-c1ccc(N(CCCN(C)C)C(=O)COCCOCCNC(=O)CN2CCN(CC(=O)[O-])CCN(CC(=O)[O-])CCN(CC(=O)[O-])CC2)cc1C(C)C.[177Lu+3] (stereo not shown) [^177Lu-I-6]	% ID/g	12.71
COc1cccc(OC)c1-c1cc(C(=O)NC2(C(=O)O)C3CC4CC(C3)CC2C4)nn1-c1ccc(C(=O)N(C)CCCN(C)CCCN(C)C(=O)CN2CCN(CC(=O)[O-])CCN(CC(=O)[O-])CCN(CC(=O)[O-])CC2)cc1C(C)C.[177Lu+3] (stereo not shown) [^177Lu-C-2, reference compound]	% ID/g	10.34

* * *

Test system: ASPC-1 tumor-bearing mice
method description: Biodistribution of radionuclide labeled complexes in ASPC-1 tumor-bearing mice
Format: in vivo, BALB/c nude mice
recorded conditions: Heart, 24 h
Values of % ID/g (24 h) Heart strictly less than 0.4 % ID/g map to yes (1), and values of at least 0.4 % ID/g map to no (0).

compound	assigned category
COc1cccc(OC)c1-c1cc(C(=O)NC2(C(=O)O)C3CC4CC(C3)CC2C4)nn1-c1ccc(SCCCN(C)CCCN(C)C(=O)CN2CCN(CC(=O)[O-])CCN(CC(=O)[O-])CCN(CC(=O)[O-])CC2)cc1C(C)C.[177Lu+3] (centres unmarked) [^177Lu-I-8]	no (0)
COc1cccc(OC)c1-c1cc(C(=O)NC2(C(=O)O)C3CC4CC(C3)CC2C4)nn1-c1ccc(N(C)CCCN(C)CCCN(C)C(=O)CN2CCN(CC(=O)[O-])CCN(CC(=O)[O-])CCN(CC(=O)[O-])CC2)cc1C(C)C.[177Lu+3] (centres unmarked) [^177Lu-I-1]	yes (1)
COc1cccc(OC)c1-c1cc(C(=O)NC2(C(=O)O)C3CC4CC(C3)CC2C4)nn1-c1ccc(NCCOCCOCCNC(=O)CN2CCN(CC(=O)[O-])CCN(CC(=O)[O-])CCN(CC(=O)[O-])CC2)cc1C(C)C.[177Lu+3] (centres unmarked) [^177Lu-I-10]	yes (1)
COc1cccc(OC)c1-c1cc(C(=O)NC2(C(=O)O)C3CC4CC(C3)CC2C4)nn1-c1ccc(NC(=O)CCCN(C)CCCN(C)C(=O)CN2CCN(CC(=O)[O-])CCN(CC(=O)[O-])CCN(CC(=O)[O-])CC2)cc1C(C)C.[177Lu+3] (centres unmarked) [^177Lu-I-5]	no (0)
COc1cccc(OC)c1-c1cc(C(=O)NC2(C(=O)O)C3CC4CC(C3)CC2C4)nn1-c1ccc(C(=O)N(C)CCCN(C)CCCN(C)C(=O)CN2CCN(CC(=O)[O-])CCN(CC(=O)[O-])CCN(CC(=O)[O-])CC2)cc1C(C)C.[177Lu+3] (centres unmarked) [^177Lu-C-2, reference compound]	yes (1)
